// data source = patent US12030878B2

# TARGET_OR_SYSTEM: human TLR9 (Homo sapiens, UniProt Q9NR96)
# METHOD_DESCRIPTION: TLR9 inhibition reporter assay (HEK-Blue SEAP)
# MEASUREMENT_CONDITIONS: HEK-Blue cells overexpressing human TLR9, stimulated with ODN2006 5 nM, 22 hour incubation
pIC50: −log10 of the molar value.
Where pIC50 equals or exceeds 6, the correct label is Condition met; where it does not, the label is Condition not met.

[
  {
    "COMPOUND": "Cc1c(-c2[nH]c3ccc(OC4CCN(C5COC5)CC4)cc3c2C(C)C)cn(C)c(=O)c1C [Example 50]",
    "CLASS": "Condition not met"
  },
  {
    "COMPOUND": "Cc1cc(-c2[nH]c3ccc(OC4CCN(C)CC4)cc3c2C(C)C)cn2ncnc12 [Example 32]",
    "CLASS": "Condition not met"
  }
]

Lookup: Quick check: does Cc1cc(-c2[nH]c3ccc(OC4CCN(CC(=O)N(C)C)CC4)cc3c2C(C)C)cc(C)n1 [Example 79] have pIC50 greater than or equal to 6?
Found: Condition met

Lookup: Quick check: does Cc1cc(-c2[nH]c3ccc(O[C@H]4CCCN(CC(=O)N(C)C)C4)cc3c2C(C)C)cn(C)c1=O [Example 82] have pIC50 greater than or equal to 6?
Found: Condition not met

Lookup: Quick check: does Cc1cc(-c2[nH]c3ccc(OC4CCN(CC(C)(C)O)CC4)cc3c2C(C)C)cc(C)n1 [Example 21] have pIC50 greater than or equal to 6?
Found: Condition met

Lookup: Quick check: does Cc1cc(-c2[nH]c3ccc(OC4CCC(N(C)C)CC4)cc3c2C(C)C)cn2ncnc12 (stereo not drawn) [Example 64] have pIC50 greater than or equal to 6?
Found: Condition not met

Lookup: Quick check: does COc1ccc(-c2[nH]c3ccc(OCC4CCN(Cc5ccccc5)CC4)cc3c2C(C)C)cc1OC [Example 160] have pIC50 greater than or equal to 6?
Found: Condition not met

Lookup: Quick check: does Cc1cc(-c2[nH]c3ccc(OCCN4CCCC(F)C4)cc3c2C(C)C)cn2ncnc12 (stereo not drawn) [Example 4] have pIC50 greater than or equal to 6?
Found: Condition not met

====

The entries below come with measured pIC50 values attached.
# TARGET_OR_SYSTEM: human TLR9 (Homo sapiens, UniProt Q9NR96)
# Sequence (Q9NR96 26-1032): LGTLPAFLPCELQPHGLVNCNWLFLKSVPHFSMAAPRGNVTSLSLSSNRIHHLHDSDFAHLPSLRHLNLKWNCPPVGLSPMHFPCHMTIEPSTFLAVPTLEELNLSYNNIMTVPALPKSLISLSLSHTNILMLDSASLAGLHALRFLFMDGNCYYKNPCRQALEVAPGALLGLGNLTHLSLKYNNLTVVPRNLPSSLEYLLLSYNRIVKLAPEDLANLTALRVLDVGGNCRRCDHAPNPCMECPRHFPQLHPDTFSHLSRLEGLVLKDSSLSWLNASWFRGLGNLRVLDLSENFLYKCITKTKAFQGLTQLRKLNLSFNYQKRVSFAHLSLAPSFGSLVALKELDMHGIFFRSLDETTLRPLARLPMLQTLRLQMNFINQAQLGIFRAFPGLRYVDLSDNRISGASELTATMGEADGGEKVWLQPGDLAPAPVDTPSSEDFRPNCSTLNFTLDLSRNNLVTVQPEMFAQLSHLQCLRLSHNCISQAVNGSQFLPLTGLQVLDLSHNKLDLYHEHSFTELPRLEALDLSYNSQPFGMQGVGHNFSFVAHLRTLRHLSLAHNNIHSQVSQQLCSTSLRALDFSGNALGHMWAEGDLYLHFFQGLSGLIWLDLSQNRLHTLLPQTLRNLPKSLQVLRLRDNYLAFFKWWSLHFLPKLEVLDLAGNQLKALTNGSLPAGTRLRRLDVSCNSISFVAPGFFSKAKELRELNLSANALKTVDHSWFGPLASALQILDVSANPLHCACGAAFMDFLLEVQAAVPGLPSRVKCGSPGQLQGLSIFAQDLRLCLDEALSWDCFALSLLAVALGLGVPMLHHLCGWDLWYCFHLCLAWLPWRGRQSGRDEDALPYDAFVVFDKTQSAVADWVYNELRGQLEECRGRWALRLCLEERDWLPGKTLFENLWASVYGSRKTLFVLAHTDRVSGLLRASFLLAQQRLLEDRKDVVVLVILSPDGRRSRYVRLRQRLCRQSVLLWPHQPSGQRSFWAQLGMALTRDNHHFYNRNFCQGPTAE
# METHOD_DESCRIPTION: TLR9 inhibition reporter assay (HEK-Blue SEAP)
# MEASUREMENT_CONDITIONS: HEK-Blue cells overexpressing human TLR9, stimulated with ODN2006 5 nM, 22 hour incubation
Entry type: numeric. Quantity: pIC50, the -log10 of concentration in molar units.

These solved cases illustrate the format of a correct answer.
[
  {
    "COMPOUND": "COc1ccc(-c2[nH]c3ccc(OCC(=O)NC4CC[C@H]5CC[C@@H]4N5C)cc3c2C(C)C)cc1OC (some centres unmarked)",
    "pIC50": 5.39
  },
  {
    "COMPOUND": "Cc1cc(-c2[nH]c3ccc(OCC(=O)N4CCCCC4C4CCNCC4)cc3c2C(C)C)ccn1 (centres unmarked)",
    "pIC50": 6.45
  },
  {
    "COMPOUND": "Cc1cc(-c2[nH]c3ccc(OCC4CCN(C5CCOCC5)CC4)cc3c2C(C)C)cn2ncnc12",
    "pIC50": 5.99
  },
  {
    "COMPOUND": "Cc1cc(-c2[nH]c3ccc(OCC4CN(C)C4)cc3c2C(C)C)cn2ncnc12",
    "pIC50": 5.52
  },
  {
    "COMPOUND": "Cc1c(-c2[nH]c3ccc(OC4CCN(C(C)C)CC4)cc3c2C(C)C)cn(C)c(=O)c1C",
    "pIC50": 5.30
  }
]

// field: pIC50; key: COc1ccc(-c2[nH]c3ccc(OCC(=O)NCCN)cc3c2C(C)C)cc1OC ; value = 5.80

// field: pIC50; key: COCCN1CCC(COc2ccc3[nH]c(-c4cc(C)nc(C)c4)c(C(C)C)c3c2)CC1 ; value = 6.20

// field: pIC50; key: Cc1cc(-c2[nH]c3ccc(OC4CCN(C)CC4)cc3c2C(C)C)ccn1 ; value = 5.84
